All figures here come from the DeepSol protein solubility set.

# PROTOCOL SUMMARY: soluble on expression in E. coli; label from the status in PepcDB or PDB records
PROPERTY: soluble on expression in E. coli

INSERT INTO results (sequence, property, test_value) VALUES
  ('MAHHHHHHMRVIIQRVKNAALSVIKEESKETEKQLELFSEIKNGIICFVGIHKNDTWKDAMYIIRKCLNLRLWSDGNKSWDKSVKDLNYEILFVSQFTLFANTKKGNKPDFHLAKEPKEALAMYNKMVEQFAKDYNHEKIKTGKFGCYMNIQVTNDGPVTIFIDSHDVNLDN', 'soluble on expression in E. coli', 'not soluble'),
  ('SNAMMIKASTNEFRFCFKQMNKSQHELVLGWIHQPHINEWLHGDGLSNTIKDLHEFLNDGKPWATHWIAYDNEIPFAYLITSEIEKSEEYPDGAVTLDLFICRLDYIGKGLSVQMIHEFILSQFSDTKIVLINPEISNERAVHVYKKAGFEIIGEFIASWHPVPHYKMKLCIEDLKKQRLSA', 'soluble on expression in E. coli', 'soluble'),
  ('MRCKRHTVDFSSSIGVCASCLRERLFTLAVSTAASENDDNDHRHSRISPPPLLFPRSVSPYVAPRKSDAGTGTGAGGRDSVASSNNRFFATPQVVVQSSSSEKVFESDRSFKKKKSGLSRFSSFFRTRSDDYDSRRDSCDASTVFSQPSSATTSRSWFSKVISVRSKKQSTTNTCYIEDLIASESDHHHHNQNRPRQRYCRGMSPAGDSTTNDESVEESPGRLRRTPVMGTPGRKKTATIGIGRSVSGMAFCLSPLVRAKPNCSSNWKAKFPPDFGYSGELKSPAKPHLSTAASFCGNRSKKLVDLGRVDHRR', 'soluble on expression in E. coli', 'soluble'),
  ('MTEYNNNFDRELGWDDEITQDSVGFVQLVPGDYQFTVTNMERARHTPNPKSPGKLPACNKAVVTIQIETSEGIAQLTHNLFLHTTTEGMLSAFFGAIGQKKHGEPLKMNWNTVIGAKGVARINKRKGTGDYADREYDNIKSMIYADEVDWTKVLNKDVAQPQQMTHQQSAQPTYQGQQAQGTNFAQQPATQSYQQGQMQTPQQPQGGWGGF', 'soluble on expression in E. coli', 'not soluble');

----------
# PROTOCOL SUMMARY: soluble on expression in E. coli; label from the status in PepcDB or PDB records
PROPERTY: soluble on expression in E. coli

INSERT INTO measurements (sequence, test_value) VALUES
  ('MSLDGMPAKQQHNNTGESVELHFHYPIKGKQEPKNSHLVVLIEPKIEINKVIPESYQKEFEKSLFLQLSSFLERKGYSVSQFKDASEIPQDIKEKALLVLRMDGNVAILEDIVEESDALSEEKVIDMSSGYLNLNFVEPKSEDIIHSFGIDVSKIKAVIERVELRRTNSGGFVPKTFVHRIKETDHDQAIRKIMNQAYHKVMVHITKELSKKHMEHYEKVSSEMKKRKEGHHHHHH', 'soluble'),
  ('MSLRKVRVGIWGFGAMGIGMANMILKKEGIEIVSVCSRSTSGKSMYDVLGIERGERPEVIINKNYEEVFREKSVDVVLLATDSFTKKAFDKIIFLLNRKINVISTAEQMAYPQADDADLAKKMDEVAKENGVSILGTGINPGFVLDLLVLALSGTCEEVTSIKAKRVNDLSPFGKSVMVEQGVGVTREEFIKGVEDKTIAGHVGFVESINMIADGLGWKLDKIEQTKEPIMTTVDRKSKYGEALAGNVAGCRQCGYGYVNGEVLIEMEHPQQIIPEAEGIKTGDYVSIKGIPNIDLQINPEIPGGVGTYAMIVNSIPLIINARPGLKTMLDIPVPRAIMGDIRNQIEVELEEEGHHHHHH', 'soluble'),
  ('MSLNVVNSIFSKLSIAPMIDWTNSPFRTLMRLLAPNALLYTEMQTTGAVQNNPDRALYFNSVEHPLAIQLGGADKSALVKCAIIAEQKGFNEINLNLGCPSDKVQAGRFGACLMKEPEHVADCIRAIKQVVGIPVTAKTRIGIDNQDSYEFFRSFSLHLVEAGCDKLIIHARKAWLNGLNPKQNRTIPPVNYDYVYELKKEIPHIFITINGNILTVEEINNHLKHVDGVMLGRLACDNPYQIAEIHQALYPEFIKIKRSQLLMNYLDYWFDQSRANLSLSILVKPLFNLAFGLPGAKHWKKKLMNIIQEKNTSGFSELIQYLLNLEAINQVEEGHHHHHH', 'soluble');

----------
# PROTOCOL SUMMARY: soluble on expression in E. coli; label from the status in PepcDB or PDB records
PROPERTY: soluble on expression in E. coli

INSERT INTO assay_data (sequence, property, test_value) VALUES
  ('PEHIRQMAQAVEGVTPRALPDLPVACRLSGLEPLTIEKETLFINVGERTNVTGSARFKRLIKEEQYDEALEVARQQVENGAQIIDINMDEGMLDAQACMVRFLNLCASEPEISKVPIMVDSSKWEVIEAGLKCIQGKGIVNSISLKEGKEKFVEQAKLIRRYGAAVIVMAFDEVGQAETRTRKLEICTNAYRILVDEVGFPPEDIIFDPNIFAVATGIDEHNNYAVDFIEAVADIKRDLPHAMISGGVSNVSFSFRGNNYVREAIHAVFLYHCFKNGMDMGIVNAGQLEIYDNVPEKLREAVEDVVLNRRDDATERLLDIAAEYADKGVGKEEDASAL', 'soluble on expression in E. coli', 'not soluble'),
  ('MGSDKIHHHHHHMYLLVDVGNTHSVFSITEDGKTFRRWRLSTGVFQTEDELFSHLHPLLGDAMREIKGIGVASVVPTQNTVIERFSQKYFHISPIWVKAKNGCVKWNVKNPSEVGADRVANVVAFVKEYGKNGIIIDMGTATTVDLVVNGSYEGGAILPGFFMMVHSLFRGTAKLPLVEVKPADFVVGKDTEENIRLGVVNGSVYALEGIIGRIKEVYGDLPVVLTGGQSKIVKDMIKHEIFDEDLTIKGVYHFCFGD', 'soluble on expression in E. coli', 'not soluble'),
  ('MATHKLSFFEKLANTFGALYRHQAQQFPRRLAILKAVGKHELAPPRSADIPAIKADWAKLQKFIETKQYVNLSIKESLVYSAVALEVVFWFFVGEMIGRRYIFGYIVPANYVSKDTKAKVAEKKRLAALEA', 'soluble on expression in E. coli', 'not soluble');
